Provenance of the data: patent US10428140B2

For each of the molecules below, state its hEphB6-SEAP-: absorbance at 450 nm, percentage with respect to hEphA4-SEAP-His as 100%.
- target desc: T1, human EphB6 (Homo sapiens, UniProt O15197)
- T1 construct: a protein of the extracellular region of each human Eph receptor fused with the SEAP protein and the His tag; made in house; host or cells: Expi293F cells
- T1 sequence (O15197 32-594 limits assumed): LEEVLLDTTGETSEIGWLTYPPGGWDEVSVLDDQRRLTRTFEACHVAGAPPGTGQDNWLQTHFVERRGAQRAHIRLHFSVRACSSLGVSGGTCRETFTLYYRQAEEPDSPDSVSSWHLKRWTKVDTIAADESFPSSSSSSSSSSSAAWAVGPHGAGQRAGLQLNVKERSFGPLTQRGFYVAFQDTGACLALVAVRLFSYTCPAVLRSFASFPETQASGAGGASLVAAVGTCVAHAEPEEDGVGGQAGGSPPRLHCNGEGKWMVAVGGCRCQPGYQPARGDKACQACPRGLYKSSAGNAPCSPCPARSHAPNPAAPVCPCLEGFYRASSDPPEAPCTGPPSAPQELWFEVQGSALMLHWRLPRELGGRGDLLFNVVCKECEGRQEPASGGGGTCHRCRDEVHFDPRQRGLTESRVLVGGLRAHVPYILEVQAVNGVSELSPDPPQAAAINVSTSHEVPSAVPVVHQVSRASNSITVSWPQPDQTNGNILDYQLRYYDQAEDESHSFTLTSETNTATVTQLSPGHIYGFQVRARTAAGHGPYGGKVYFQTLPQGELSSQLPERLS
- assay protocol: Selectivity ELISA of humanized antibodies for human Eph receptor
- Format: binding
- study conditions: coated protein 1 nM
Use % as the unit, but write only the number.

Requested field: hEphB6-SEAP-: absorbance at 450 nm, percentage with respect to hEphA4-SEAP-His as 100%. Item: 94 (antibody, V domains shown, constant regions without entry; synthetic humanized antibody light chain variable region sequence; synthetic humanized antibody heavy chain variable region sequence) VL: EIVMTQSPATLSVSPGERATLSCRASENIYRNLAWYQQKPGQSPRLLIYAATNLADGIPARFSGSGSGTEYTLTISSLQSEDFAVYYCQHFWGTPWTFGQGTKVEIK VH: QVQLVQSGSELKKPGASVKVSCKASGYTFTDYSMHWVRQAPGQGLKWMGWINTETGEPTYAQGFTGRFVFSLDTSVSTAYLQISSLKAEDTAVYYCARIPLYYYGSRYWYFDVWGQGTTVTVSS
6.4

Can you look up the measured hEphB6-SEAP-: absorbance at 450 nm, percentage with respect to hEphA4-SEAP-His as 100% of 78 (antibody, V domains shown, synthetic humanized antibody heavy chain variable region sequence; synthetic humanized antibody light chain variable region sequence) VH: QVQLVQSGSELKKPGASVKVSCKASGYTFTDYSMHWVRQAPGQGLKWMGWINTETGEPTYADDFKGRFVFSLDTSVSTAYLQISSLKAEDTAVYYCARIPLYYYGSRYWYFDVWGQGTTVTVSS VL: DIQMTQSPSSLSASVGDRVTITCRASENIYRNLAWYQQKPGKAPKLLVYAATNLADGVPSRFSGSGSGTDYTLTISSLQPEDFATYYCQHFWGTPWTFGQGTKVEIK for me?
5.2
